Assay Protocol: qHTS Assay for NPC1 Promoter Activators; also: nearly all actives have a fitted effect of over 60% in size;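 as to activation: reporter is driven by a mutant NPC1 promoter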
Recorded Conditions: Huh7 NPC1 promoter luciferase reporter, 24 h; series mostly up to 9.22 µM
Out of some 320,000 compounds screened, about 7,600 (2.4%) were called active. Roughly 3% stayed inconclusive and do not appear here. Calls follow the shape of the dose curve; as a rule, active = well fitted activation curve with a large enough effect; inconclusive = small, poorly fitted or top-dose-only effect; inactive = no such curve, though single readings can be large or run the other way. Only a selection was taken, and actives are over-represented in it overall.
A correct response names exactly one class from yes (active), no (inactive)

Please review the entries below; each comes with its answer.
Test call, this molecule: CCN1/C(=C/c2ccc3ccc(C)cc3[n+]2CC)Sc2ccccc21 no

Test call, this molecule: O=C(Nc1ncc([N+](=O)[O-])s1)C1COc2ccccc2O1 (stereo unspecified) yes

Test call, this molecule: Cc1n[nH]c(=O)c2c(NC(=O)CSc3cc(Cl)ccc3Cl)oc(C)c12 no

Test call, this molecule: O=C(C1CC(=O)N(C2CCCC2)C1)N1CCN(c2cccc(C(F)(F)F)c2)CC1 (stereo unspecified) no

Test call, this molecule: COc1ccc(C)cc1NC(=O)c1cc(-c2ccccc2)nc2c1cnn2C(C)C no

---
Test call, this molecule: CC1CC(C)CN(C(=O)COC(=O)c2ccc3ncsc3c2)C1 (stereo unspecified) no

Test call, this molecule: O=C(CN1CCc2ccccc2C1)Nc1cccc(S(=O)(=O)N2CCOCC2)c1 no

Test call, this molecule: Cc1c(C)c(C)c(S(=O)(=O)N2CCC3(CC2)OCCO3)c(C)c1C no

Test call, this molecule: CC(=O)c1cccc(NC(=O)C2COc3ccccc3O2)c1 (stereo unspecified) no

Test call, this molecule: CCOc1ccc(C(=O)Nc2nccs2)cc1[N+](=O)[O-] no

Test call, this molecule: COc1ccc(C(=O)NCc2ccc(Cl)cc2)cc1S(=O)(=O)N1CCCC1 no

----------
Assay Protocol: qHTS Assay for NPC1 Promoter Activators; also: nearly all actives have a fitted effect of over 60% in size;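 as to activation: reporter is driven by a mutant NPC1 promoter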
Recorded Conditions: Huh7 NPC1 promoter luciferase reporter, 24 h; series mostly up to 9.22 µM
The whole screen tested about 320,000 compounds, of which about 7,600 (2.4%) were called active. Inconclusive results (about 3%) are left out. The call rests on the fitted dose curve; in most records, active means well fitted activation curve with a large enough effect; inconclusive means small, poorly fitted or top-dose-only effect; inactive means no such curve, though single readings can be large or run the other way. The sample holds actives, similar compounds and a random draw of the others, so the mix is not that of the screen.
A correct response names exactly one class from active, inactive

Please review the entries below; each comes with its answer.
Test call, this molecule: Cc1nc2ccc(NC(=O)C(F)(F)F)cc2o1 inactive

Test call, this molecule: CCOC(=O)c1ccc(N/C(=N/S(=O)(=O)c2ccccc2)c2ccccc2)cc1 inactive

Test call, this molecule: Nc1ccc(N=Nc2ccccc2Cl)c(N)n1 active

Test call, this molecule: CCOc1ccc(S(=O)(=O)N2CCC(C(=O)NCC(=O)Nc3cccc(Cl)c3C)CC2)cc1 inactive

Test call, this molecule: O=C(CSc1nnc2ccccn12)c1ccccc1 active

Test call, this molecule: CC(C)CCN1CCC(C)(NC(=O)c2ccccc2)C1=O (configuration not stated) inactive

Test call, this molecule: COc1ccc(CSc2nnnn2-c2ccc(O)cc2)cc1F inactive

Test call, this molecule: CCC(C)N(C)C1CCN(C(=S)Nc2ccc(OC)cc2)CC1 (configuration not stated) inactive

Test call, this molecule: CC1CCCCC12NC(=O)N(CC(=O)Nc1ccc(S(=O)(=O)Nc3ncccn3)cc1)C2=O (configuration not stated) inactive

Test call, this molecule: Cc1cc(C)cc(-c2nnc(SCC(=O)NC3CC3)o2)c1 inactive

---
Test call, this molecule: CC(C)n1ncc2c(C(=O)Nc3ccc(CC#N)cc3)cc(C3CC3)nc21 inactive

Test call, this molecule: CCN(CC(=O)Nc1c(F)cccc1F)C(=O)c1ccc(-c2ccc(C(C)=O)cc2)o1 inactive

Test call, this molecule: O=C(NCCSc1ccccc1)c1ccco1 active

Test call, this molecule: O=C(Cn1c(-c2cncs2)nc2ccccc21)NC1CCCC1 inactive

Test call, this molecule: Cc1ccc(Oc2cnn(-c3ccccc3)c(=O)c2Br)cc1 inactive

Test call, this molecule: CCOC(=O)CSc1nnc(-c2cccc(Br)c2)o1 inactive

Test call, this molecule: CSCCC(NC(=O)c1ccco1)C(=O)NCCc1ccc(F)cc1 (configuration not stated) inactive

Test call, this molecule: Cc1cc(C(=O)CSc2nc(N)cc(=O)[nH]2)c(C)n1-c1cccc(F)c1 inactive
